Values compiled from PubChem BioAssay.

- ASSAY METHOD TEXT: LAP4-GFP expression modulators in yeast, confirmation, cell-based, cherry picks, flow cytometry, mother/daughter gates (AID 2271);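 also: ratio of sample to DMSO plate mean so 100% equals DMSO level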
- APPLIED CONDITIONS: S. cerevisiae LAP4-GFP strain, 3 h, at 10 µM, stronger effect = higher value, 100 means same as DMSO control
QUANTITY KIND: GFP response relative to DMSO (%)
Express it in %; write the number only.

Before answering, review these 3 worked examples.
{"COMPOUND": "CSC1=NS(=O)(=O)c2c(C)nn(C)c2S1", "UNIT DESCRIPTOR": "%", "GFP response relative to DMSO": 156}
{"COMPOUND": "Cc1nc(SC2CC(=O)N(c3ccccc3)C2=O)nc2c1CCCC2 (stereo unspecified)", "UNIT DESCRIPTOR": "%", "GFP response relative to DMSO": 97.9}
{"COMPOUND": "O=[N+]([O-])c1cccc(-c2ccc(/C=N/Nc3nc(N4CCCCC4)nc(N4CCCCC4)n3)o2)c1", "UNIT DESCRIPTOR": "%", "GFP response relative to DMSO": 118}

# GFP response relative to DMSO of `COC(=O)Cn1nc(-c2ccccc2)c2cc(Cl)ccc21` = 104

# GFP response relative to DMSO of `Cc1cccc(CS(=O)(=O)c2ncc(Cl)c(C(=O)NCc3ccc4c(c3)OCO4)n2)c1` = 90.2

# GFP response relative to DMSO of `O=C(c1ccccc1)N1CCN(c2ccccc2F)CC1` = 105

# GFP response relative to DMSO of CC(OC(=O)CSc1ccc([N+](=O)[O-])cc1)C(=O)NCc1ccccc1 (stereo unspecified) = 99.8

# GFP response relative to DMSO of `CN1CC(=O)NC1=NC(=O)C12CC3CC(CC(C3)C1)C2` = 102

# GFP response relative to DMSO of `O=C(CSc1nnc(-c2ccccn2)n1Cc1ccccc1)N1CCOCC1` = 105

# GFP response relative to DMSO of O=C(O)c1ccccc1SC1CC(=O)N(c2ccc3c(c2)OCO3)C1=O (stereo unspecified) = 106

# GFP response relative to DMSO of `CNc1nc(-c2ccccc2)cc(C(F)(F)F)c1C#N` = 96.2

---

- ASSAY METHOD TEXT: modulators of CIT2-GFP expression in yeast, confirmation, S. cerevisiae, GFP fusion, cherry picks, mother/daughter gates (AID 2274)
- APPLIED CONDITIONS: S. cerevisiae CIT2-GFP strain, flow cytometry, 3 h; measured here: mother cell gate; at 10 µM; stronger effect = higher value
The following compounds are shown together with reported GFP response, % of DMSO values.
Report the figure along with its unit, number first.

Before answering, review these 2 worked examples.
{"COMPOUND": "CN=C(NC)SC1CC(=O)N(c2ccccc2)C1=O (stereo not drawn)", "GFP response, % of DMSO": "91.2%"}
{"COMPOUND": "COc1ccc(-n2c(N)c(C(=O)Nc3c(C)n(C)n(-c4ccccc4)c3=O)c3nc4ccccc4nc32)cc1", "GFP response, % of DMSO": "94.4%"}

# GFP response, % of DMSO of `CCOc1cc(/C=C2\N=C(C)OC2=O)cc(Br)c1OCCc1ccccc1` = 88.6%

# GFP response, % of DMSO of `O=S(=O)(/N=C(/Sc1ccccc1)c1ccccc1)c1ccccc1` = 79.2%

# GFP response, % of DMSO of `NC(=O)C1CCN(C(=S)NCCc2ccccc2)CC1` = 103%

# GFP response, % of DMSO of `COc1ccc(/C=C/C(=O)c2ccc(Cl)cc2)c(OC)c1` = 97.3%

# GFP response, % of DMSO of `CCNc1nc(-c2ccc(Cl)cc2)cs1` = 106%

# GFP response, % of DMSO of `Cc1nn2c(N3CCN(C(=O)c4ccco4)CC3)cc(C(C)(C)C)nc2c1-c1ccccc1` = 95%

# GFP response, % of DMSO of `O=C1Nc2ccc(Br)cc2/C1=C/C(=O)c1ccc2c(c1)OCO2` = 96.1%

---

The following compounds are shown together with reported GFP response vs DMSO values.
- ASSAY METHOD TEXT: RPL19A-GFP modulators, yeast TOR pathway, confirmation, cell-based, S. cerevisiae, flow cytometry, cherry picks, mother/daughter gates (AID 2270)
- APPLIED CONDITIONS: S. cerevisiae RPL19A-GFP strain, 3 h, at 10 µM, stronger effect = lower value, 100 = same GFP as DMSO wells
Express it in %; write the number only.

Before answering, review these 5 worked examples.
{"COMPOUND": "Cc1cccc(NC(=O)CCCN2C(=O)c3cccc4cccc(c34)C2=O)c1", "UNIT DESCRIPTOR": "%", "GFP response vs DMSO": 101}
{"COMPOUND": "Cc1cccc(NC(=O)c2ccc([N+](=O)[O-])o2)c1", "UNIT DESCRIPTOR": "%", "GFP response vs DMSO": 103}
{"COMPOUND": "CS(=O)(=O)c1nc(-c2ccccc2)cc(C(F)(F)F)n1", "UNIT DESCRIPTOR": "%", "GFP response vs DMSO": 102}
{"COMPOUND": "C=CCOc1cccc(C(=O)/C=C2/C(=O)Nc3ccccc32)c1", "UNIT DESCRIPTOR": "%", "GFP response vs DMSO": 102}
{"COMPOUND": "O=C(O)c1ccc2ccc3ccccc3c2c1", "UNIT DESCRIPTOR": "%", "GFP response vs DMSO": 96.6}

# GFP response vs DMSO of `Cc1ccc(Oc2nc(-c3ccccn3)nc3ccccc23)cc1` = 98.2

# GFP response vs DMSO of `CCOc1cc(C(=S)N2CCCCC2)ccc1OS(=O)(=O)c1ccc(Cl)cc1` = 96.5

# GFP response vs DMSO of `CCN(CC)Cc1csc2ccc(Br)cc12` = 98.4

# GFP response vs DMSO of `C/C(=N/NC(=O)c1ccc(C(C)(C)C)cc1)c1ccccn1` = 110

# GFP response vs DMSO of `CCOC(=O)Cc1csc(NC(=O)c2sc3nc4ccc(CC)cc4cc3c2N)n1` = 98.9

# GFP response vs DMSO of `COc1cc(NC(=O)c2c(OC)cccc2OC)ccc1NC(=O)c1cc2ccccc2o1` = 96

---

- ASSAY METHOD TEXT: LAP4-GFP expression modulators in yeast, confirmation, cell-based, cherry picks, flow cytometry, mother/daughter gates (AID 2271);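 also: ratio of sample to DMSO plate mean so 100% equals DMSO level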
- APPLIED CONDITIONS: S. cerevisiae LAP4-GFP strain, 3 h, measured here: mother cell gate response, at 10 µM, stronger effect = higher value, 100 means same as DMSO control
The following compounds are shown together with reported GFP response relative to DMSO values.
Express it in %; write the number only.

Before answering, review these 2 worked examples.
{"COMPOUND": "N#C/C(=C\\c1cccc(Oc2ccccc2)c1)C(=O)N1CCOCC1", "UNIT DESCRIPTOR": "%", "GFP response relative to DMSO": 141}
{"COMPOUND": "CCCCN(CC)S(=O)(=O)c1ccc(C(=O)Nc2nnc(COC)o2)cc1", "UNIT DESCRIPTOR": "%", "GFP response relative to DMSO": 99.5}

# GFP response relative to DMSO of `O=C(/C=C/c1ccccn1)c1cc(Br)ccc1O` = 210

---

- ASSAY METHOD TEXT: RPL19A-GFP modulators, yeast TOR pathway, confirmation, cell-based, S. cerevisiae, flow cytometry, cherry picks, mother/daughter gates (AID 2270)
- APPLIED CONDITIONS: S. cerevisiae RPL19A-GFP strain, 3 h, measured here: daughter cell gate, at 10 µM, stronger effect = lower value, 100 = same GFP as DMSO wells
QUANTITY KIND: GFP response vs DMSO (%)
Express it in %; write the number only.

Before answering, review these 3 worked examples.
{"COMPOUND": "CN1CCc2c(sc3c2C(=O)NC(c2ccc4c(c2)OCO4)N3)C1 (centres undefined)", "GFP response vs DMSO, %": 99.8}
{"COMPOUND": "C=CCNC(=O)/C(C#N)=C/c1c(N(Cc2ccccc2)Cc2ccccc2)nc2ccccn2c1=O", "GFP response vs DMSO, %": 98.6}
{"COMPOUND": "Cc1cccn2c(=O)c(/C=C(\\C#N)C(=O)NC3CCS(=O)(=O)C3)c(N3CCC(C)CC3)nc12 (centres undefined)", "GFP response vs DMSO, %": 101}

# GFP response vs DMSO of Cc1cccc(NC(c2ccc(C)s2)c2ccc3ccc(C)nc3c2O)n1 (centres undefined) = 120

# GFP response vs DMSO of `O=[N+]([O-])c1cccc(/C=N/Nc2ncc(Br)cn2)c1` = 88.5
